The measurements presented in this section are drawn from patent US9745289B2.

molecular target: cortisol synthase (CYP11B1) (Macaca fascicularis); assay: Inhibition of Cortisol Synthesis; format: biochemical, cynomolgus monkey; details: cynomolgus adrenal gland mitochondria; 150 units of CYP11B1, 11-deoxycortisol as substrate, cortisol measured as product
readout_name: IC50

molecule	experimental_system	IC50
CS(=O)(=O)Cc1cncc(C2COc3c(cccc3C(N)=O)O2)c1 (single isomer, unassigned) [Cpd 8A]	cortisol synthase (CYP11B1) (Macaca fascicularis)	> 30 µM
CS(=N)(=O)Cc1cncc(C2COc3c(C#N)cccc3O2)c1 (single isomer, unassigned) [Cpd 62AB]	cortisol synthase (CYP11B1) (Macaca fascicularis)	> 30 µM

[ask] # IC50 lookup, item CNC(=O)c1cccc2c1OCC(c1cncc(OC3CCN(C(C)=O)CC3)c1)O2 (single isomer, unassigned) [Cpd 33A]
[reply] > 30 µM

---

cortisol synthase (CYP11B1) (Macaca fascicularis, UniProt A0A2K5ULY1) data, read-out IC50

Recorded results for 4 compounds are shown here.
compound	IC50
NC(=O)c1cccc2c1OCC(c1cncc(CN3CCOC3=O)c1)O2 (single isomer, unassigned) [Cpd 31A]	> 30 µM
N#Cc1cccc2c1OCC(c1cncc(CC(=O)N3CCOCC3)c1)O2 (single isomer, unassigned) [Cpd 43B]	> 30 µM
N#Cc1cccc2c1OCC(c1cncc(CC(=O)N3CC[C@@H](O)C3)c1)O2 (single isomer, unassigned) [Cpd 55B]	> 30 µM
NC(=O)c1cccc2c1OCC(c1cncc(CC(=O)N3CCOCC3)c1)O2 (single isomer, unassigned) [Cpd 13A]	> 100 µM

Turning now to a further record.
[ask] Request - read-out IC50 | tested on cortisol synthase (CYP11B1) (Macaca fascicularis, UniProt A0A2K5ULY1) | compound NC(=O)c1cccc2c1OCC(c1cncc(C3(O)CCOCC3)c1)O2 (single isomer, unassigned) [Cpd 1A]
[reply] > 100 µM
